Experiment Notes: Thermo Scientific Acclaim RSLC 120 C18, 100 × 2.1 mm, 2.2 µm, 30 °C; A: 90% water + 10% methanol + 0.01% formic acid + 5 mM ammonium formate; B: methanol + 0.01% formic acid + 5 mM ammonium formate; gradient (min/%B) 0.1/1 3/39 14/99.9 16/99.9
Test Parameters: stereoisomer not certain
Endpoint Label: LC retention time (min)
The response must be a number in min with no trailing unit.

A selection of reference data follows.
molecule=CCCCOc1cc(C(=O)NCCN(CC)CC)c2ccccc2n1 endpoint_label="LC retention time" test_value=8.41
molecule=CCOc1ccccc1OS(=O)(=O)NC(=O)Nc1nc(OC)cc(OC)n1 endpoint_label="LC retention time" test_value=9.32
molecule="Oc1ccc2c3c1OC1C(O)C=CC4C(C2)NCCC341 (configuration not stated)" endpoint_label="LC retention time" test_value=2.71
molecule="CN(C)CC(CN1c2ccccc2Sc2ccccc21)N(C)C (configuration not stated)" endpoint_label="LC retention time" test_value=8.54
molecule="Cc1ccc(S(=O)(=O)NC(=O)NC2C3CCC(C)(C2O)C3(C)C)cc1 (configuration not stated)" endpoint_label="LC retention time" test_value=9.79

Measured LC retention time of O=C1CC2OCC=C3CN4CCC56c7ccccc7N1C5C2C3CC46 (configuration not stated) : 4.16

Measured LC retention time of CC(C)(C(=O)O)c1ccc(C(O)CCCN2CCC(C(O)(c3ccccc3)c3ccccc3)CC2)cc1 (configuration not stated) : 7.68

Measured LC retention time of CC(C)N(C(=O)CS(=O)(=O)O)c1ccccc1 : 5.46

Measured LC retention time of Cc1nn(C)c(Oc2ccccc2)c1C=NOCc1ccc(C(=O)OC(C)(C)C)cc1 : 13.2

Measured LC retention time of CC1(OC(=O)C=Cc2ccccc2)CC(O)C2(O)C=COC(OC3OC(CO)C(O)C(O)C3O)C12 (configuration not stated) : 8.25

---

Experiment Notes: Thermo Scientific Acclaim RSLC 120 C18, 100 × 2.1 mm, 2.2 µm, 30 °C; A: 90% water + 10% methanol + 0.01% formic acid + 5 mM ammonium formate; B: methanol + 0.01% formic acid + 5 mM ammonium formate; gradient (min/%B) 0.1/1 3/39 14/99.9 16/99.9
Test Parameters: stereoisomer not certain
Response field label takes Met when LC retention time is strictly below 9 min and Not met in all other cases.

Some solved cases for reference:
compound=NCCc1ccccc1 qualitative_label=Met
compound=NC(=O)N1c2ccccc2CC(=O)c2ccccc21 qualitative_label=Met
compound=COc1ccc2cc(CCC(C)=O)ccc2c1 qualitative_label="Not met"
compound="Cc1ccccc1CC(C)N (centres undefined)" qualitative_label=Met
compound="CNC(=O)ON=C(C)C(C)SC (centres undefined)" qualitative_label=Met

Query :: I wonder whether CNCCC(Oc1cccc2ccccc12)c1cccs1 (centres undefined) has LC retention time below 9 min. Can you tell?
Result :: Met

Query :: I wonder whether N=C(N)N1CCc2ccccc2C1 has LC retention time below 9 min. Can you tell?
Result :: Met

Query :: I wonder whether CCCC(NC(C)C(=O)N1C(C(=O)O)CC2CCCCC21)C(=O)OCC (centres undefined) has LC retention time below 9 min. Can you tell?
Result :: Not met

---

Experiment Notes: Thermo Scientific Acclaim RSLC 120 C18, 100 × 2.1 mm, 2.2 µm, 30 °C; A: 90% water + 10% methanol + 0.01% formic acid + 5 mM ammonium formate; B: methanol + 0.01% formic acid + 5 mM ammonium formate; gradient (min/%B) 0.1/1 3/39 14/99.9 16/99.9
Test Parameters: stereoisomer not certain
Endpoint Label: LC retention time
// unit must come after the numeric part

A selection of reference data follows.
molecule=COc1cc(OC)nc(NC(=O)NS(=O)(=O)c2c(-c3nnn(C)n3)cnn2C)n1 endpoint_label="LC retention time" test_value="7.62 min"
molecule="CCCC(=O)Nc1ccc(OCC(O)CNC(C)C)c(C(C)=O)c1 (stereo not given)" endpoint_label="LC retention time" test_value="4.78 min"
molecule=CCCc1nc(C)c2c(=O)[nH]c(-c3cc(S(=O)(=O)N4CCN(CC)CC4)ccc3OCC)nn12 endpoint_label="LC retention time" test_value="8.11 min"
molecule="CCC(C(N)=O)N1CCCC1=O (stereo not given)" endpoint_label="LC retention time" test_value="3.74 min"

With those in mind, consider the next molecule.
Measured LC retention time of CC(O)C1C(=O)N2C(C(=O)O)=C(SC3CNC(C(=O)N(C)C)C3)C(C)C12 (stereo not given) : 10.6 min

---

Experiment Notes: Thermo Scientific Acclaim RSLC 120 C18, 100 × 2.1 mm, 2.2 µm, 30 °C; A: 90% water + 10% methanol + 0.01% formic acid + 5 mM ammonium formate; B: methanol + 0.01% formic acid + 5 mM ammonium formate; gradient (min/%B) 0.1/1 3/39 14/99.9 16/99.9
Test Parameters: stereoisomer not certain
Note to self: class labels come from recorded LC retention time, ranges listed here: low interval: < 5 min; middle interval: ≥ 5 min and < 6 min; high interval: ≥ 6 min

Some solved cases for reference:
compound=CCC1(c2ccccc2)C(=O)NCNC1=O qualitative_label="middle interval"
compound=Cc1cc(C)cc(C(=O)N(NC(=O)c2ccc3c(c2C)CCCO3)C(C)(C)C)c1 qualitative_label="high interval"
compound=CCN(CC)CCNC(=O)c1ccc(N)cc1 qualitative_label="low interval"
compound="CCOC(=O)C1C(OC(=O)c2ccccc2)CC2CCC1N2C (stereo not given)" qualitative_label="middle interval"
compound="COC1CC(OC2C(C)OC(OC3C(C)=CCC4CC(CC5(CCC(C)C(C(C)C)O5)O4)OC(=O)C4C=C(C)C(O)C5OCC(=CC=CC3C)C45O)CC2OC)OC(C)C1O (stereo not given)" qualitative_label="high interval"

Query :: Category of COP(=O)(OC)Oc1ccc([N+](=O)[O-])cc1 :
Result :: high interval

Query :: Category of CCN(CC)C(=O)C1C=C2c3cccc4c3C(O)(CC2N(C)C1)C(=O)N4 (stereo not given) :
Result :: low interval

Query :: Category of CC(=O)OCCC(SC(C)=O)=C(C)N(C=O)Cc1cnc(C)nc1N :
Result :: low interval

Query :: Category of Cc1ccc(C2(c3ccccc3)NC(=O)NC2=O)cc1 (stereo not given) :
Result :: high interval

---

Catalogue of LC retention time values
Experiment Notes: Thermo Scientific Acclaim RSLC 120 C18, 100 × 2.1 mm, 2.2 µm, 30 °C; A: 90% water + 10% methanol + 0.01% formic acid + 5 mM ammonium formate; B: methanol + 0.01% formic acid + 5 mM ammonium formate; gradient (min/%B) 0.1/1 3/39 14/99.9 16/99.9
Test Parameters: stereoisomer not certain
The response must be a number in min with no trailing unit.

A selection of reference data follows.
molecule=NCCc1cnc[nH]1 test_value=1.58
molecule=COP(=S)(OC)Oc1ccc(S(N)(=O)=O)cc1 test_value=6.19
molecule="NCC(O)c1ccccc1 (configuration not stated)" test_value=2.84
molecule="CNC(=O)ON=C(C)C(C)S(C)(=O)=O (configuration not stated)" test_value=3.66
molecule="CC=CCC1=C(C)C(OC(=O)C2C(C=C(C)C)C2(C)C)CC1=O (configuration not stated)" test_value=12.9
molecule="COC(=O)C(NC(=O)c1nn(CC2CCCCC2)c2ccccc12)C(C)(C)C (configuration not stated)" test_value=12.9
molecule=CCOc1ccccc1C(N)=O test_value=5.68
molecule=COc1ccc(CCN)cc1OC test_value=3.53
molecule="COC1C=COC2(C)Oc3c(C)c(O)c4c(O)c(c5c(nc6cc(C)ccn65)c4c3C2=O)NC(=O)C(C)=CC=CC(C)C(O)C(C)C(O)C(C)C(OC(C)=O)C1C (configuration not stated)" test_value=10.1
molecule="CCN(C(=O)SCc1ccccc1)C(C)C(C)C (configuration not stated)" test_value=12.2

Measured LC retention time of CCOC(=O)C=C1SC(N2CCCCC2)C(=O)N1CC (configuration not stated) : 9.85

Measured LC retention time of NC(=O)N1c2ccccc2C2OC2c2ccccc21 (configuration not stated) : 6.04

---

Experiment Notes: Thermo Scientific Acclaim RSLC 120 C18, 100 × 2.1 mm, 2.2 µm, 30 °C; A: 90% water + 10% methanol + 0.01% formic acid + 5 mM ammonium formate; B: methanol + 0.01% formic acid + 5 mM ammonium formate; gradient (min/%B) 0.1/1 3/39 14/99.9 16/99.9
Test Parameters: stereoisomer not certain
Catalogue of LC retention time values
The response must be a number in min with no trailing unit.

Measured LC retention time of c1ccc(Nc2ccccc2)cc1 : 10.1

Measured LC retention time of COP(=S)(OC)Oc1ccc([N+](=O)[O-])cc1 : 9.24

Measured LC retention time of CC(C)Cc1ccc(C(C)C(=O)O)cc1 (configuration not stated) : 10.7

---

Experiment Notes: Thermo Scientific Acclaim RSLC 120 C18, 100 × 2.1 mm, 2.2 µm, 30 °C; A: 90% water + 10% methanol + 0.01% formic acid + 5 mM ammonium formate; B: methanol + 0.01% formic acid + 5 mM ammonium formate; gradient (min/%B) 0.1/1 3/39 14/99.9 16/99.9
Test Parameters: stereoisomer not certain
Output y for LC retention time not less than 8 min; output n otherwise.

compound="CC(=O)C1CCC2C3CCC4=CC(=O)CCC4(C)C3CCC12C (centres undefined)" qualitative_label=y
compound=CCCc1nn(C)c2c(=S)nc(-c3cc(S(=O)(=O)N4CCN(CC)CC4)ccc3OCC)[nH]c12 qualitative_label=y
compound=CCCCCn1cc(C(=O)Oc2cccc3cccnc23)c2ccccc21 qualitative_label=y

Query :: Please check the record CC1CC(C)C(=O)C(C(O)CC2CC(=O)NC(=O)C2)C1 (centres undefined) and state if its LC retention time is at or above 8 min.
Result :: n

Query :: Please check the record CCCCCn1cc(C(=O)c2ccc(OC)cc2)c2ccccc21 and state if its LC retention time is at or above 8 min.
Result :: y

Query :: Please check the record CCCCNC(=O)n1c(NC(=O)OC)nc2ccccc21 and state if its LC retention time is at or above 8 min.
Result :: n

Query :: Please check the record CC1C(=O)OC2CCN3CC=C(COC(=O)C(C)(O)C1(C)O)C23 (centres undefined) and state if its LC retention time is at or above 8 min.
Result :: n

Query :: Please check the record CC(C)C(N)C(=O)OCC(CO)OCn1cnc2c(=O)[nH]c(N)nc21 (centres undefined) and state if its LC retention time is at or above 8 min.
Result :: n

The measurements presented in this section are drawn from the RepoRT retention time repository (doi:10.1016/j.jhazmat.2019.121712).
